Kindly state log10 TGI for each of the entries shown.
Tested on: M14 melanoma
assay-protocol: NCI tumour cell line growth inhibition, 48 h
Please be aware that the numbers have been log10-transformed from TGI in µM.

# compound, log10 TGI
data = [
    ("Nc1cc(C(F)(F)F)c(-c2nc(N3CCOCC3)nc(N3CCOCC3)n2)cn1", 1.15),
    ("COC1=CC(=O)C(O)=C(CC2(C)C(C)CCC3(C)C2CCCC3(C)C)C1=O (stereo not given)", 0.88),
    ("COc1ccc(NC(=S)c2ccc([N+](=O)[O-])o2)cc1", 0.86),
    ("Cc1ccc(-c2nc([P+](c3ccccc3)(c3ccccc3)c3ccccc3)c(N3CCOCC3)o2)cc1", 1.02),
    ("COc1cc(/C=C/c2cc(/C=C/c3ccc(O)c(OC)c3)n(C(=O)Nc3ccc(C)cc3)n2)ccc1O", 0.02),
]

Take each entry in turn and give its log10 TGI.
1. COc1cc2c(cc1OCCCOc1cc3c(cc1OC)C(=O)N1CCC[C@H]1C(=O)N3)N=C[C@@H]1CCCN1C2=O
2. CC1(c2ccc(Cl)cc2)C=C(c2ccc(Cl)cc2)C(C#N)=C(C(C#N)C#N)N1 (stereo not given)
3. C(=C\c1cc[n+](CCc2ccccc2)cc1)/c1ccccc1
4. Cc1cccc(Oc2ccc(Nc3ncnc4ccc(NC(=O)CN(C)C)cc34)cc2Cl)c1

[1.74, 1.56, 1.50, 0.54]

Sourced from PubChem BioAssay (NCI)
